Readings of EC50 for the listed compounds
tested on: IL-17A levels in human peripheral blood; test: tissue or blood; format: cell-based; settings: 72 h, read-out: Human Whole blood IL-17A (nM)

Please give the documented EC50 of `Cc1cc(CN2CCN(C(=O)OC(C)C)[C@@H](C)C2)c(C)c(Nc2nnc([C@H]3C[C@@H](O)C3)o2)c1` 426 nM

Please give the documented EC50 of `CCC(F)(F)C(=O)N1CCN(Cc2cc(C)cc(Nc3nnc([C@@H](C)O)o3)c2C)C[C@@H]1C` 251 nM

Please give the documented EC50 of `Cc1c(CN2CCN(C(=O)OC(C)C)[C@@H](C)C2)cc(Cl)cc1Nc1nnc([C@H](C)O)o1` 187 nM

Please give the documented EC50 of `Cc1cc(CN2CCN(C(=O)OC(C)C)[C@@H](C)C2)c(C)c(Nc2nnc([C@H](C)N)o2)c1` 275 nM
